Give measured normalized growth for each item. Keep answers brief.
assay: chemical genetic growth profiling, strain panel (AID 1159580);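 note: tested at 20 µM; growth read once vehicle control cultures reached saturation at 30 °C; 1 = growth at the plate median or of vehicle wells; lower values mean less growth of the strain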; conditions: S. cerevisiae deletion strains, growth OD, locus YOR083W, strain WHI5, active compounds read low
Screen size: about 5,500 compounds; about 2,000 (36%) were called active. Not shown: some 18% with an inconclusive outcome. This is one part of the list.

Identify the reported normalized growth for the following entry. C=CC1=C(C)/C(=C/c2[nH]c(Cc3[nH]c(/C=C4\NC(=O)C(C)=C4C=C)c(C)c3CCC(=O)O)c(CCC(=O)O)c2C)NC1=O 0.94 (inactive)

Give the reported normalized growth for this compound. CCCc1cc(OC)c2c(c1)OCO2 0.938 (inactive)

Annotate the compound COP(=S)(OC)Oc1ccc(SC)c(C)c1 with its measured normalized growth. 0.951 (inactive)

For the compound Cc1cccc(CN2CCN(C(c3ccccc3)c3ccc(Cl)cc3)CC2)c1 (configuration not stated) , give its reported normalized growth. 0.689 (active)

Answer with reported normalized growth of O=C(O)c1ccc2c(c1)OCO2 1 (inactive)

Assign normalized growth to the following record: O=C(O)CCC(=O)c1ccc(-c2ccccc2)cc1 0.953 (inactive)

Identify normalized growth associated with the compound S=c1[nH]c2ccccc2s1 0.997 (inactive)

Report measured normalized growth; entry is NCCCCN=C(N)N 1.01 (inactive)

Fill in reported normalized growth for this entry: c1cc2c(cc1[C@H]1OC[C@H]3[C@@H]1CO[C@H]3c1ccc3c(c1)OCO3)OCO2 0.877 (active)

Assign normalized growth to the following record: CN(C)CCCO[C@H]1[C@@H](C(O)CO)OC2OC(C)(C)O[C@@H]21 (some centres not stated) 0.953 (inactive)

Answer with the recorded normalized growth of CCOP(=S)(OCC)Oc1ccc2c(C)c(Cl)c(=O)oc2c1 only. 0.991 (inactive)

Identify measured normalized growth associated with C[C@](N)(Cc1ccc(O)c(O)c1)C(=O)O 0.919 (inactive)

For the compound C#C[C@]1(O)CCC2C3CCc4cc(OC)ccc4C3CC[C@@]21C (some centres not stated) , report normalized growth. 0.919 (inactive)

Dear colleague, please send me the reported normalized growth for CCOC(=O)c1ccc(N)cc1 when you can. 1.01 (inactive)

Look up normalized growth of CC(=O)O[C@H]1C[C@@H](OC(C)=O)C(C)(C)C2C[C@@H](OC(C)=O)[C@]3(C)C(CC[C@@]4(C)[C@H](c5ccoc5)C(=O)[C@H]5O[C@]543)[C@]21C (some centres not stated) and report it. 0.991 (inactive)

Specify reported normalized growth for the compound shown: CCCN(CCC)CCc1cccc2c1CC(=O)N2 0.975 (inactive)

Specify normalized growth for CC(Cc1ccc(O)c(O)c1)(NN)C(=O)O (configuration not stated) and stop. 0.996 (inactive)
